target: sigma-2 receptors (Homo sapiens); construct: endogenous in cells; host or cells: MiaPaCa2, PANC-1, AsPC1 (whole cells); test: Flow cytometry displacement of sigma-2 fluorescent ligand NO1 in human pancreatic cancer cells; format: binding; conditions: Flow Cytometry, IC50 ± SEM, Sigma-2, AspC1, AspC1 cells, displacement of NO1
Sequence (Q5BJF2 whole entry): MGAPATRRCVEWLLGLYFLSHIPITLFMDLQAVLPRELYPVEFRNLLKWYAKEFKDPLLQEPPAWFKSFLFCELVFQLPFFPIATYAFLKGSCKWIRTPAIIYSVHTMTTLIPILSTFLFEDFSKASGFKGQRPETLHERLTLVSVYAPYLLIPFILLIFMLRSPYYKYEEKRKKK
pIC50: −log10 of the molar value.
Measured Parameter: pIC50

>>> print(df.to_string())
                                   compound  value_measured
0  CN(C)C(=S)N/N=C1\C(=O)N(CCCCN2CCC3(CC2)OCc2ccccc23)c2ccccc21            7.97
